# Assay Text: Formation and dissociation constants of QAR, titration with metal ion standard at pH 8.8
# Format: binding
# Condition: with Hg(II) ion, read-out: square root over (KD)
Outcome Measure: Kd
Please append the unit to your numeric answer.

Quick one: give measured Kd for `Oc1ccc(N=Nc2cccc3cccnc23)c(O)c1` 321 nM

---

# Assay Text: Formation and dissociation constants of QAR, titration with metal ion standard at pH 8.8
# Type: binding
# Condition: accuracy limited, with Co(II) ion, read-out: square root over (KD)
Outcome Measure: Kd (µM)
Enter your answer as a number in µM; do not include the unit.

Give Kd for the following molecule: Oc1ccc(N=Nc2cccc3cccnc23)c(O)c1 [QAR] 0.23

---

# Assay Text: Protonation states of free QAR, pKA by absorption and ReactLab Equilibria (Example 29)
# Assay type: physicochemical
# Condition: free dye; site Quinoline N
Outcome Measure: pKa
I'd appreciate a reply containing only the number, no unit.

Give the measured pKa for `Oc1ccc(N=Nc2cccc3cccnc23)c(O)c1` 2.42

---

# Assay Text: Formation and dissociation constants of QAR, titration with metal ion standard at pH 8.8
# Format: binding
# Condition: with Zn(II) ion, read-out: square root over (KD)
Outcome Measure: Kd (nM)
Express the result in nM but write the number alone.

Return Kd for the following compound: `Oc1ccc(N=Nc2cccc3cccnc23)c(O)c1` 569

---

# Assay Text: Formation and dissociation constants of QAR, titration with metal ion standard at pH 8.8
# Format: binding
# Condition: with Ni(II) ion, read-out: square root over (KD)
Outcome Measure: pKd
In simple prose, pKd is minus the logarithm base ten of a concentration in moles per litre.

Give the reported value of pKd for this record: `Oc1ccc(N=Nc2cccc3cccnc23)c(O)c1` 6.29
